Exercise: state measured cell viability for each of the molecules provided.
System: Caco-2
experimental.protocol: cell viability relative to DMSO; higher = less toxic
condition: 72 h; 10000 nM
Return type: number; implicit unit %.

Query block: Hello, please tell me recorded cell viability for this one: CCOC(=O)[C@@H](N)Cc1ccc(-c2cc(O[C@H](c3ccc(Cl)cc3-n3ccc(C)n3)C(F)(F)F)nc(N)n2)cc1 [telotristat-ethyl]
Result block: 88.6

Query block: Annotate the molecule COc1ccc(CNCc2cccc3ccccc23)cc1 [ML133] with its measured cell viability.
Result block: 88.3

Query block: Given CN1[C@@H]2CC[C@H]1C[C@@H](OC(=O)[C@H](CO)c1ccccc1)C2 [hyoscyamine] , respond with its cell viability.
Result block: 89.6

Query block: Tell me cell viability reported for COC1(C2=NCCN2)COc2ccccc2O1 (configuration not stated)
Result block: 91.4

Query block: Specify cell viability for O=C(O)c1ccc(-c2ccc3cc(O)c(C45CC6CC(CC(C6)C4)C5)cc3c2)cc1 [CD-1530] and stop.
Result block: 88

Query block: Name the recorded cell viability of the molecule listed here: C#C[C@]1(OC(C)=O)CC[C@H]2[C@@H]3CCC4=C[C@@H](OC(C)=O)CC[C@@H]4[C@H]3CC[C@@]21C [ethynodiol-diacetate]
Result block: 88.8

Query block: Return reported cell viability. Input molecule: COc1cc2c(NC3CCN(C(C)C)CC3)nc(C3CCCCC3)nc2cc1OCCCN1CCCC1 [UNC0638]
Result block: 90.3
